So I've got IC50 readings for PARP (Homo sapiens), take a look.

Some solved cases for reference:
CC1Oc2c(F)cc(CN3CCN(c4ccc(C(=O)O)cc4)CC3)cc2NC1=O (stereo not shown)    ≥ 126 nM
CC1Oc2ccc(CN3CCN(c4ccc(C#N)cn4)CC3)cc2NC1=O (stereo not shown)    ≤ 31.6 nM
CCNC(=O)c1ccc(N2CCC(Oc3ccc4c(c3)NC(=O)C(C)O4)CC2)cc1 (stereo not shown)    > 200 nM

Attention now shifts to the item below.
Field: IC50 (PARP (Homo sapiens)). Entry: CNC(=O)c1ccc(N2CCN(Cc3cc(Cc4ccccc4)c4c(c3)NC(=O)C(C)O4)CC2)cc1 (stereo not shown)
> 200 nM
